molecular target: Recombinant human hepsin (4776-SE-010, R&D Systems), activated (human, UniProt P05981); test: fluorogenic inhibition assay
Source text: […]
Starred links: 1 amine or outer side, 2 acyl side, 3 side chain; linkers in the order of their positions; H or OH if unused. Non-standard residues stand in square brackets, D forms with d. *: point of attachment. Kbt‑6‑CONH = ketobenzothiazole-6-CONH (amide link to Val), O=C(c1ccc2nc([*:1])sc2c1)[*:2]; kbt = C-terminal ketobenzothiazole, c1ccc2sc(*)nc2c1; His(π-Bom) = N[C@@H](Cc1cncn1COCc1ccccc1)C(=O)O; Fmoc = O=C(OCC1c2ccccc2-c2ccccc21)*
assayMetric: Ki (nM)
# value in nM; strip the unit string

Problem: Dear colleague, I am looking for the recorded Ki of the following binder: Fmoc-Pro-Arg-kbt [Fmoc-PR-kbt]
Result: 776

Problem: Dear colleague, I am looking for the recorded Ki of the following binder: Ac-KRLR-{Kbt‑6‑CONH-Val-NH2} [Ac-KRLR(SEQ ID NO: 8)-Kbt-Val-NH2]
Result: 0.227

Problem: Dear colleague, I am looking for the recorded Ki of the following binder: Fmoc-Glu-Arg-kbt [Fmoc-ER-kbt]
Result: 338

Problem: Dear colleague, I am looking for the recorded Ki of the following binder: H-[His(π-Bom)][dW]LR-kbt (SMILES CC(C)C[C@H](NC(=O)[C@@H](Cc1c[nH]c2ccccc12)NC(=O)[C@@H](N)Cc1cncn1COCc1ccccc1)C(=O)N[C@@H](CCCNC(=N)N)C(=O)c1nc2ccccc2s1) [H-His(Bom)-dWLR-kbt]
Result: 1.13
